# TARGET_ENTITY: DFNB31-1 (Homo sapiens, UniProt Q9P202)
# Sequence (Q9P202 140-223): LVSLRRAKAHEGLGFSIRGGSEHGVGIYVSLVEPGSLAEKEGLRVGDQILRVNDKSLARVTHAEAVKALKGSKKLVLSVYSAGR
# EXPERIMENT_SUMMARY: Holdup assay, DFNB31-1
# Format: binding
MEASURED_QUANTITY: BI

Query the reported BI for DFNB31-1 (Homo sapiens, UniProt Q9P202); item: CC[C@H](C)[C@H](NC(=O)[C@H](CCC(N)=O)NC(=O)[C@@H](NC(=O)[C@H](Cc1c[nH]cn1)NC(=O)[C@H](CCC(N)=O)NC(=O)[C@H](CC(=O)O)NC(=O)[C@H](CCC(=O)O)NC(=O)[C@H](CC(=O)O)NC(=O)CCC(=O)NCCCOCCOCCOCCCNC(=O)CCCC[C@@H]1SC[C@@H]2NC(=O)N[C@@H]21)[C@@H](C)O)C(=O)N[C@H](C(=O)N[C@@H](CCCCN)C(=O)N[C@H](C(=O)O)C(C)C)[C@@H](C)O [PTEN_11]
0.108

###

# Tested on: 266 human PDZ domains (PDZome)
# EXPERIMENT_SUMMARY: Holdup assay (chromatographic retention, PDZome-binding profile, BI)
# Parameters: key: binding intensity: 0.00 = no binding, 1.00 = maximal binding
# RECORDED_CONDITIONS: PDZ domain NHERF4-3
MEASURED_QUANTITY: BI

Please report the recorded BI for CC[C@H](C)[C@H](NC(=O)[C@H](CCC(N)=O)NC(=O)[C@@H](NC(=O)[C@H](Cc1c[nH]cn1)NC(=O)[C@H](CCC(N)=O)NC(=O)[C@H](CC(=O)O)NC(=O)[C@H](CCC(=O)O)NC(=O)[C@H](CC(=O)O)NC(=O)CCC(=O)NCCCOCCOCCOCCCNC(=O)CCCC[C@@H]1SC[C@@H]2NC(=O)N[C@@H]21)[C@@H](C)O)C(=O)N[C@H](C(=O)N[C@@H](CCCCN)C(=O)N[C@H](C(=O)O)C(C)C)[C@@H](C)O .
0.06

###

# System: 266 human PDZ domains (PDZome)
# EXPERIMENT_SUMMARY: Holdup assay (chromatographic retention, PDZome-binding profile, BI)
# Parameters: key: binding intensity: 0.00 = no binding, 1.00 = maximal binding
# RECORDED_CONDITIONS: PDZ domain SNTG1-1
*1 amine or outer side, *2 acyl side, *3 side chain or, on linkers, in order; H or OH if unused. Where a SMILES comes first, the peptide text is derived from it. The star is where a group is joined. X1 = O=C(CCCC[C@@H]1SC[C@@H]2NC(=O)N[C@@H]21)NCCCOCCOCCOCCCN*; Suc = O=C(CCC(=O)[*:2])[*:1]
MEASURED_QUANTITY: BI
Form rule: numeric answer, no unit written next to it.

The following compounds have reported results that may help.
COMPOUND | BI
CC[C@H](C)[C@H](NC(=O)[C@H](CCC(N)=O)NC(=O)[C@@H](NC(=O)[C@H](Cc1c[nH]cn1)NC(=O)[C@H](CCC(N)=O)NC(=O)[C@H](CC(=O)O)NC(=O)[C@H](CCC(=O)O)NC(=O)[C@H](CC(=O)O)NC(=O)CCC(=O)NCCCOCCOCCOCCCNC(=O)CCCC[C@@H]1SC[C@@H]2NC(=O)N[C@@H]21)[C@@H](C)O)C(=O)N[C@H](C(=O)N[C@@H](CCCCNC(C)=O)C(=O)N[C@H](C(=O)O)C(C)C)[C@@H](C)O [PTEN_Ac] | 0.345
CC[C@H](C)[C@H](NC(=O)[C@H](CCC(N)=O)NC(=O)[C@@H](NC(=O)[C@H](Cc1c[nH]cn1)NC(=O)[C@H](CCC(N)=O)NC(=O)[C@H](CC(=O)O)NC(=O)[C@H](CCC(=O)O)NC(=O)[C@H](CC(=O)O)NC(=O)CCC(=O)NCCCOCCOCCOCCCNC(=O)CCCC[C@@H]1SC[C@@H]2NC(=O)N[C@@H]21)[C@@H](C)O)C(=O)N[C@H](C(=O)N[C@@H](CCCNC(=N)N)C(=O)N[C@H](C(=O)O)C(C)C)[C@@H](C)O [PTEN_KR] ({X1-Suc}-DEDQHTQITRV-OH) | 0.076

Shifting focus to the compound that follows.
So what does the record say about BI for CC[C@H](C)[C@H](NC(=O)[C@H](CCC(N)=O)NC(=O)[C@@H](NC(=O)[C@H](Cc1c[nH]cn1)NC(=O)[C@H](CCC(N)=O)NC(=O)[C@H](CC(=O)O)NC(=O)[C@H](CCC(=O)O)NC(=O)[C@H](CC(=O)O)NC(=O)[C@H](Cc1ccccc1)NC(=O)[C@@H]1CCCN1C(=O)CCC(=O)NCCCOCCOCCOCCCNC(=O)CCCC[C@@H]1SC[C@@H]2NC(=O)N[C@@H]21)[C@@H](C)O)C(=O)N[C@H](C(=O)N[C@@H](CCCCN)C(=O)N[C@H](C(=O)O)C(C)C)[C@@H](C)O [PTEN_13] ({X1-Suc}-PFDEDQHTQITKV-OH) ?
0.14

###

# TARGET_ENTITY: DLG1 PDZ 2 (Homo sapiens)
# Construct: made in house; host or cells: E. coli
# Sequence (Q12959 319-405 limits assumed): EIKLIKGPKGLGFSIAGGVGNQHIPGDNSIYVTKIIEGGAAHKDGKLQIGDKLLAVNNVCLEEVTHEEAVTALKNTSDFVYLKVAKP
# EXPERIMENT_SUMMARY: Holdup assay, DLG1-2
# Type: binding
# RECORDED_CONDITIONS: DLG1-2
*1 amine or outer side, *2 acyl side, *3 side chain or, on linkers, in order; H or OH if unused. Where a SMILES comes first, the peptide text is derived from it. The star is where a group is joined. X1 = O=C(CCCC[C@@H]1SC[C@@H]2NC(=O)N[C@@H]21)NCCCOCCOCCOCCCN*; Suc = O=C(CCC(=O)[*:2])[*:1]
MEASURED_QUANTITY: BI

COMPOUND | OBSERVED_MEASUREMENT
CC[C@H](C)[C@H](NC(=O)[C@H](CCC(N)=O)NC(=O)[C@@H](NC(=O)[C@H](Cc1c[nH]cn1)NC(=O)[C@H](CCC(N)=O)NC(=O)[C@H](CC(=O)O)NC(=O)[C@H](CCC(=O)O)NC(=O)[C@H](CC(=O)O)NC(=O)CCC(=O)NCCCOCCOCCOCCCNC(=O)CCCC[C@@H]1SC[C@@H]2NC(=O)N[C@@H]21)[C@@H](C)O)C(=O)N[C@H](C(=O)N[C@@H](CCCCNC(C)=O)C(=O)N[C@H](C(=O)O)C(C)C)[C@@H](C)O [PTEN_Ac] | 0.425
CC[C@H](C)[C@H](NC(=O)[C@H](CCC(N)=O)NC(=O)[C@@H](NC(=O)[C@H](Cc1c[nH]cn1)NC(=O)[C@H](CCC(N)=O)NC(=O)[C@H](CC(=O)O)NC(=O)[C@H](CCC(=O)O)NC(=O)[C@H](CC(=O)O)NC(=O)CCC(=O)NCCCOCCOCCOCCCNC(=O)CCCC[C@@H]1SC[C@@H]2NC(=O)N[C@@H]21)[C@@H](C)O)C(=O)N[C@H](C(=O)N[C@@H](CCCCN)C(=O)N[C@H](C(=O)O)C(C)C)[C@@H](C)O [PTEN_11] | 0.09
CC[C@H](C)[C@H](NC(=O)[C@H](CCC(N)=O)NC(=O)[C@@H](NC(=O)[C@H](Cc1c[nH]cn1)NC(=O)[C@H](CCC(N)=O)NC(=O)[C@H](CC(=O)O)NC(=O)[C@H](CCC(=O)O)NC(=O)[C@H](CC(=O)O)NC(=O)[C@H](Cc1ccccc1)NC(=O)[C@@H]1CCCN1C(=O)CCC(=O)NCCCOCCOCCOCCCNC(=O)CCCC[C@@H]1SC[C@@H]2NC(=O)N[C@@H]21)[C@@H](C)O)C(=O)N[C@H](C(=O)N[C@@H](CCCCN)C(=O)N[C@H](C(=O)O)C(C)C)[C@@H](C)O [PTEN_13] ({X1-Suc}-PFDEDQHTQITKV-OH) | 0.168

Now consider a different compound.
Any idea what its BI is? The compound is CC[C@H](C)[C@H](NC(=O)[C@H](CCC(N)=O)NC(=O)[C@@H](NC(=O)[C@H](Cc1c[nH]cn1)NC(=O)[C@H](CCC(N)=O)NC(=O)[C@H](CC(=O)O)NC(=O)[C@H](CCC(=O)O)NC(=O)[C@H](CC(=O)O)NC(=O)CCC(=O)NCCCOCCOCCOCCCNC(=O)CCCC[C@@H]1SC[C@@H]2NC(=O)N[C@@H]21)[C@@H](C)O)C(=O)N[C@H](C(=O)N[C@@H](CCCNC(=N)N)C(=O)N[C@H](C(=O)O)C(C)C)[C@@H](C)O [PTEN_KR] ({X1-Suc}-DEDQHTQITRV-OH)
0.253
